Would you mind telling me the reported CC50 of each entry?
Assay: NOVARTIS: Cytotoxicity against human hepatocellular carcinoma cell line (Huh7)
Format: toxicity, cell-based, Huh-7
Details: Huh7 cells (hepatocellular carcinoma cell line)

Recorded CC50 for CC1CCC(C(C)(C)Oc2ccc(NC(=O)c3ccccc3)cc2)CC1 (stereo not given) , please?
42.8 µM

Same again, this time with O=C1NCCN1C(=O)C(c1ccccc1)c1ccccc1
> 10 µM

Now try CCN1CCC(NC2CCCc3c2[nH]c2ccc([N+](=O)[O-])cc32)CC1 (stereo not given) .
14.5 µM

Query O=C(Nc1ccc(F)c(F)c1)c1cc2cc(C3(O)CCN(Cc4ccccc4F)CC3)ccc2o1 next
12.8 µM

Same question for O=[N+]([O-])c1ccc(S(=O)(=O)NCCCCNc2ccnc3cc(Cl)ccc23)cc1 please.
9.67 µM

Okay, and CCN1CCN(c2cc(C)c3cc(NC(=O)/C=C/c4ccccc4Cl)ccc3n2)CC1 ?
> 10 µM

Here is the next molecule: CCCCN(C(=O)Nc1c(C(C)C)cccc1C(C)C)C(CC)c1nc2ccccc2c(=O)n1-c1cccc(Cl)c1 (stereo not given)
> 6.29 µM

What would you report for COc1ccc(/C=C/C(=O)Nc2ccc(S(=O)(=O)N3CCOCC3)cc2)cc1 ?
> 10 µM

And what about the molecule CC(=C(Cl)Cl)/C(Br)=C(\Br)CO ?
> 10 µM

Now give it for c1cc(C2=NCCN2)ccc1OCCCOc1ccc(C2=NCCN2)cc1 too.
> 10 µM

CSC1=NC(C)(C)CC2(CC(c3ccc(C)cc3)c3cc(Cl)c(O)cc3O2)N1 (stereo not given) , same question.
> 10 µM

Another molecule to look at: CCOC(=O)c1c(C)n(-c2ccccc2)c2ccc(OC(=O)c3ccccc3NC(=O)CC)cc12
> 100 µM

Also check O=C(CN1CCN(S(=O)(=O)c2cccc([N+](=O)[O-])c2)CC1)Nc1ccc(OCc2ccccc2)cc1
> 100 µM

// next record COc1ccc2nc(NC(=O)c3ccc(C#N)cc3)sc2c1
> 10 µM

One more molecule: Cc1ccn2c(NC(C)(C)CC(C)(C)C)c(-c3ccccc3OC(=O)/C=C/c3ccc([N+](=O)[O-])cc3)nc2c1
> 10 µM

Record: CCC(COC)NC(=O)c1cn(C2CCCCC2)cc(C(=O)NC(C)(C)C)c1=O (stereo not given)
> 100 µM

Now the molecule COc1ccc(CCN2C(=O)N(CC(C)C)C(=O)C23CCN(Cc2ccccc2O)CC3)cc1
> 100 µM

Next molecule: COc1ccc(CNc2ncnc3c2[nH]c2cc(OC)ccc23)cc1
24.1 µM

Continue with CCOC(=O)C1=C(C)N(c2ccc(N(C)C)cc2)C(C)=C(C(=O)OCC)C1c1ccc(Br)cc1
19.6 µM

Try the molecule CCOc1ccc(NC(=O)N(CCC(C)C)C(C)c2nc3ccccc3c(=O)n2-c2cccc(Cl)c2C)cc1 (stereo not given)
> 10 µM

###

Test: NOVARTIS: Cytotoxicity against human hepatocellular carcinoma cell line (Huh7)
Type: toxicity, cell-based, Huh-7
Details: Huh7 cells (hepatocellular carcinoma cell line)
READOUT LABEL: CC50

# input molecule: O=C(NCCCCCCNC(=O)Nc1ccc(C2=NCCCN2)cc1)Nc1ccc(C2=NCCCN2)cc1 ; wanted: its CC50
> 10 µM

Item: Cc1nc(-c2ccccn2)nc(NCCc2ccccc2)c1Cl
> 10 µM

Same question for COc1cccc(C(=O)Oc2ccccc2-c2nc3cc(C)ccn3c2NC(C)(C)CC(C)(C)C)c1 please.
> 10 µM

Same question, O=C(NCc1ccco1)C1CCN(S(=O)(=O)c2ccc(Cl)cc2)CC1 this time
> 100 µM

Thanks! And CCOC(=O)NN=C1C=C2C=CC3C(CC[C@@]4(C)C3CC3CCCCC34C(C)=O)[C@@]2(C)CC1 (stereo not given in full) ?
> 10 µM

Would you kindly repeat that for CC(C)N1CCCc2cc(CN3CCC(n4cc(C(=O)NCCCO)nn4)CC3)ccc21 ?
> 10 µM

Thanks! And COc1ccc(C2CC(c3cccs3)=NN2C(=O)CSc2nnc(CNC(=O)c3cccs3)n2-c2cc(C)ccc2C)cc1 (stereo not given) ?
> 100 µM

Another molecule to check: CC(=O)Nc1c(C)cc(Cl)cc1Cl
> 10 µM

Quick one: CCc1ccc(C(=O)N2CCCn3cccc3C2c2ccc(C(C)(C)C)cc2)cc1 (stereo not given)
> 10 µM

Similarly, CC1(C)N=C(N)N=C(N)N1c1ccc(I)cc1 ?
> 100 µM
